TGT: NL20 human bronchial epithelial cells expressing human Z-AAT (Homo sapiens, UniProt P01009, E366K)
Sequence (P01009 25-418 E366K): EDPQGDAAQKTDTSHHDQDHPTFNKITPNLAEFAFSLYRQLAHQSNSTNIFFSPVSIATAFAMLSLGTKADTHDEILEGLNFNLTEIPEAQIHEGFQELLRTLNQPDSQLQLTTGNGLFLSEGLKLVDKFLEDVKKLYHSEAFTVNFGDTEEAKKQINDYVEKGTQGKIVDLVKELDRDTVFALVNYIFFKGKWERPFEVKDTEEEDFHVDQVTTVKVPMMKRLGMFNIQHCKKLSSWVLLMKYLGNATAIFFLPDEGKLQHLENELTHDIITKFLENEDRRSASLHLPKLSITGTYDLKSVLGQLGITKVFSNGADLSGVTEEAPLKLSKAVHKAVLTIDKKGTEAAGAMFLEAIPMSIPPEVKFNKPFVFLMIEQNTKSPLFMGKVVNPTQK
ASSAY_PROTOCOL: AAT Function Assay (MSD Assay NL20-SI Cell Line)
CONDITION_DETAILS: functionally active AAT in supernatant of NL20 cells expressing human Z-AAT, MSD readout; read-out: NL20 Func. (EC50)
pEC50: −log10 of the molar value.
MEASURE: pEC50

See these solved cases before continuing.
CS(=O)(=O)c1ccc(-c2c(C3CCOCC3)n(-c3ccc(F)cc3)c3cc4cn[nH]c4cc23)nc1 [Compound 137]    < 6.00
CC(C)c1c(-c2ccc(C(=O)O)cn2)c2cc3[nH]ncc3cc2n1-c1ccc(F)cc1 [Compound 85]    6.00 to 6.40
CC(C)(CC#N)c1c(-c2ccc(C(=O)O)cc2)c2cc3[nH]nnc3cc2n1-c1ccc(F)cc1 [Compound 322]    < 6.00
Cc1cc(-n2c(C(C)C)c(-c3cccc(C(=O)O)c3)c3cc4[nH]ncc4cc32)ccc1F [Compound 11]    > 6.40
CC(C)c1c(-c2cc(C(=O)O)ccc2Cl)c2cc3[nH]ncc3cc2n1-c1ccc(F)cc1 [Compound 62]    < 6.00
Cn1cc(-c2c(C3CCOCC3)n(-c3ccc(F)cc3)c3cc4cn[nH]c4cc23)ccc1=O [Compound 281]    < 6.00
O=C(O)c1ccc(-c2cn(-c3ccc(F)cc3)c3cc4cn[nH]c4cc23)cc1 [Compound 103]    < 6.00
C[Si](C)(C)c1c(-c2ccc(C(=O)O)cc2)c2cc3[nH]ncc3cc2n1-c1ccc(F)cc1 [Compound 104]    > 6.40
CS(=O)(=O)c1ccc(-c2c(C3CCOCC3)n(-c3ccc(F)cc3)c3cc4cn[nH]c4cc23)cc1 [Compound 21]    6.00 to 6.40
Cn1ncc2cc3c(cc21)c(-c1ccc(C(=O)O)cc1)c(C1CCOCC1)n3-c1ccc(F)cc1 [Compound 336]    < 6.00

What value of measured pEC50 is listed for CC(C)(CC#N)c1c(-c2ccc(C(=O)O)cc2)c2cc3[nH]ncc3cc2n1Cc1cccc(F)c1 [Compound 300] ?
< 6.00

N#CCC1(c2c(-c3ccc(C(=O)O)cc3)c3cc4[nH]ncc4cc3n2-c2ccc(F)cc2)CC1 [Compound 263] , same question.
< 6.00

CS(=O)(=O)c1ccc(-c2c(C3CCOCC3)n(-c3ccc(F)cc3)c3cc4cn[nH]c4cc23)cn1 [Compound 121] , same question.
6.00 to 6.40

CC(C)c1c(-c2cc(F)cc(C(=O)O)c2)c2cc3[nH]ncc3cc2n1-c1ccc(F)cc1 [Compound 101] , same question.
> 6.40

Cc1cc(-c2c(C3(CC#N)CCC3)n(-c3ccc(F)cc3)c3cc4cn[nH]c4cc23)cnc1P(C)(C)=O [Compound 273] , same question.
6.00 to 6.40

Cited source: patent US12331057B2
